Every entry's value here was drawn from patent US20110118131A1.

target: T1, IL-1beta (UniProt P01584 117-269); assay: Biacore
T1 construct: also called IL-1β
Readout label: binding result

{"Binder": "XPA23 Fab, heavy chain S52E (Fab, V domains shown) VH: EVQLLESGGGLVQPGGSLRLSCAASGFTFSKYFMFWVRQAPGKGLEWVSVIEPSGGMTRYADSVKGRFTISRDNSKNTLYLQMNSLRAEDTAVYYCARVGYGGNSDYWGQGTLVTVSS VL: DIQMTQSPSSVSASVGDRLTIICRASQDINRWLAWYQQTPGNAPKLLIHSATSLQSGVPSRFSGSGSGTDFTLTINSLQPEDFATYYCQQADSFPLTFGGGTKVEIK", "Readout label": "binding result", "Measured result": "no binding"}
{"Binder": "XPA23 Fab, heavy chain F35Q (Fab, V domains shown) VH: EVQLLESGGGLVQPGGSLRLSCAASGFTFSKYFMQWVRQAPGKGLEWVSVISPSGGMTRYADSVKGRFTISRDNSKNTLYLQMNSLRAEDTAVYYCARVGYGGNSDYWGQGTLVTVSS VL: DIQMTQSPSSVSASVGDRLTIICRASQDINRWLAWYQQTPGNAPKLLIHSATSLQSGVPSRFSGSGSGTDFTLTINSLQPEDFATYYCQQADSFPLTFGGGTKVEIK", "Readout label": "binding result", "Measured result": "no binding"}
{"Binder": "XPA23 Fab, heavy chain G103Q (Fab, V domains shown) VH: EVQLLESGGGLVQPGGSLRLSCAASGFTFSKYFMFWVRQAPGKGLEWVSVISPSGGMTRYADSVKGRFTISRDNSKNTLYLQMNSLRAEDTAVYYCARVGYGQNSDYWGQGTLVTVSS VL: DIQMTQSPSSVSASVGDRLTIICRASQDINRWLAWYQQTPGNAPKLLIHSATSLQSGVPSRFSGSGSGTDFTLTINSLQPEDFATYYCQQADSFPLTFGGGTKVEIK", "Readout label": "binding result", "Measured result": "no binding"}
